Values from patent US6916812B2

- Tgt: cloned human MC4R (Homo sapiens, UniProt P32245)
- Construct: made in house; host or cells: Hi5 insect cells (baculovirus infection); membrane preparation
- Sequence (P32245 whole entry): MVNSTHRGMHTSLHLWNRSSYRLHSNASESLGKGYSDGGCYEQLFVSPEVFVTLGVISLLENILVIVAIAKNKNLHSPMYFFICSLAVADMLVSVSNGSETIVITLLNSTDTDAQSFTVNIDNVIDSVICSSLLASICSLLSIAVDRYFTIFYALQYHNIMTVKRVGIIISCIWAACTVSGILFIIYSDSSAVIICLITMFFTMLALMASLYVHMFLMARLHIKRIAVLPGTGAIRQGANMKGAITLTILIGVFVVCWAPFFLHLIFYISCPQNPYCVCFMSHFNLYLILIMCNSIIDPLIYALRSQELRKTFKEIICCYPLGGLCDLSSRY
- Measurement protocol: Membrane binding assay: competitive inhibition of [125I]NDP-α-MSH binding
- Condition: read-out: MC4R IC50
Parameter: IC50

Provide IC50 value for the following compound: CCc1ccc(COc2ccc(C[C@H](N)C(=O)N3CCN(Cc4cccc(Cl)c4Cl)CC3)cc2)cc1 [Example 220]
< 1500 nM

Provide IC50 value for the following compound: N[C@@H](Cc1ccc(OCCc2ccc(Br)cc2)cc1)C(=O)N1CCN(Cc2cccc(Cl)c2Cl)CC1 [Example 241]
< 1500 nM

Provide IC50 value for the following compound: Cc1ccccc1CCOc1ccc(C[C@H](N)C(=O)N2CCN(Cc3cccc(Cl)c3Cl)CC2)cc1 [Example 237]
< 1500 nM

Provide IC50 value for the following compound: N[C@@H](Cc1ccc(OCc2ccccc2)cc1)C(=O)N1CCN(Cc2ccc3c(c2)OCCO3)CC1 [Example 156]
> 3000 nM

Provide IC50 value for the following compound: N[C@@H](Cc1ccc(OCc2cccc(Br)c2)cc1)C(=O)N1CCN(Cc2cccc(Cl)c2Cl)CC1 [Example 197]
< 1500 nM

Provide IC50 value for the following compound: COc1ccc(COc2ccc(C[C@H](N)C(=O)N3CCN(Cc4cccc(Cl)c4Cl)CC3)cc2)cc1OC [Example 234]
> 3000 nM

Provide IC50 value for the following compound: N[C@@H](Cc1ccc(OCc2ccccc2)cc1)C(=O)N1CCN(Cc2cc(O)ccc2[N+](=O)[O-])CC1 [Example 148]
> 3000 nM

Provide IC50 value for the following compound: N[C@@H](Cc1ccc(OCc2ccccc2C(F)(F)F)cc1)C(=O)N1CCN(Cc2cccc(Cl)c2Cl)CC1 [Example 182]
< 1500 nM

Provide IC50 value for the following compound: N[C@@H](Cc1ccc(OCCc2ccc3ccccc3c2)cc1)C(=O)N1CCN(Cc2cccc(Cl)c2Cl)CC1 [Example 256]
< 1500 nM

Provide IC50 value for the following compound: N[C@@H](Cc1ccc(OCCc2ccc(OCc3ccccc3)cc2)cc1)C(=O)N1CCN(Cc2cccc(Cl)c2Cl)CC1 [Example 251]
< 1500 nM

Provide IC50 value for the following compound: N[C@@H](Cc1ccc(-c2ccc(Cl)cc2)cc1)C(=O)N1CCN(Cc2cccc(Cl)c2Cl)CC1 [Example 298]
< 1500 nM

Provide IC50 value for the following compound: N[C@@H](Cc1ccc(OCc2ccccc2)cc1)C(=O)N1CCN(Cc2ccc(N(c3ccccc3)c3ccccc3)cc2)CC1 [Example 91]
< 1500 nM

Provide IC50 value for the following compound: N[C@@H](Cc1ccc(OCc2ccccc2)cc1)C(=O)N1CCN(Cc2ccccc2C(F)(F)F)CC1 [Example 94]
1500 to 3000 nM

Provide IC50 value for the following compound: COc1ccc(-c2ccc(C[C@H](N)C(=O)N3CCN(Cc4cccc(Cl)c4Cl)CC3)cc2)cc1OC [Example 331]
> 3000 nM

Provide IC50 value for the following compound: Cc1ccc(CCOc2ccc(C[C@H](N)C(=O)N3CCN(Cc4cccc(Cl)c4Cl)CC3)cc2)cc1 [Example 239]
< 1500 nM

* * *

- Tgt: cloned human MC4R (Homo sapiens, UniProt P32245)
- Construct: made in house; host or cells: Hi5 insect cells (baculovirus infection); membrane preparation
- Measurement protocol: Membrane binding assay: competitive inhibition of [125I]NDP-α-MSH binding
- Condition: read-out: MC4R IC50
pIC50: −log10 of the molar value.
Parameter: pIC50

Provide pIC50 value for the following compound: COc1cc(CN2CCN(C(=O)[C@@H](N)Cc3ccc(OCc4ccccc4)cc3)CC2)ccc1OCc1ccc([N+](=O)[O-])cc1
5.52 to 5.82

Provide pIC50 value for the following compound: CCc1ccc(CN2CCCN(C(=O)[C@@H](N)Cc3ccc(OCc4ccccc4)cc3)CC2)s1
< 5.52

Provide pIC50 value for the following compound: Cc1ccsc1CN1CCCN(C(=O)[C@@H](N)Cc2ccc(OCc3ccccc3)cc2)CC1
< 5.52

Provide pIC50 value for the following compound: CCn1c2ccccc2c2cc(CN3CCCN(C(=O)[C@@H](N)Cc4ccc(OCc5ccccc5)cc4)CC3)ccc21
> 5.82

Provide pIC50 value for the following compound: COc1ccc(-c2ccc(C[C@H](N)C(=O)N3CCN(Cc4cccc(Cl)c4Cl)CC3)cc2)cc1
5.52 to 5.82

Provide pIC50 value for the following compound: N[C@@H](Cc1ccc(OCc2ccccc2)cc1)C(=O)N1CCN(Cc2ccccc2-c2ccccc2)CC1
< 5.52

Provide pIC50 value for the following compound: N[C@@H](Cc1ccc(OCc2ccccc2)cc1)C(=O)N1CCN(Cc2cccc(Cl)c2Cl)CC1 [Example 178]
> 5.82

* * *

- Tgt: cloned human MC4R (Homo sapiens)
- Construct: made in house; host or cells: Hi5 insect cells (baculovirus infection); membrane preparation
- Measurement protocol: Membrane binding assay: competitive inhibition of [125I]NDP-α-MSH binding
- Condition: read-out: MC4R IC50
- Experimental: Hi5 cells are infected using the following protocol: Cells at a density of 1×10^6 cells/mL are spun down at 1000 rpm (Beckman GS-6KR centrifuge) for 10 minutes. Cells are resuspended in 10% of their original volume in a sterile 50 mL conical centrifuge tube wrapped with aluminum foil. […] Protein content is determined (Bradford, Bio-Rad Protein Assay). […] Dose-response curves are fitted by […] analyses and IC50 values are calculated using ExcelFit.
pIC50: −log10 of the molar value.
Provide the reported pIC50 of each item.

Provide pIC50, system cloned human MC4R (Homo sapiens), entry COc1ccc2ccccc2c1CN1CCN(C(=O)[C@@H](N)Cc2ccc(OCc3ccccc3)cc2)CC1
5.52 to 5.82

Provide pIC50, system cloned human MC4R (Homo sapiens), entry CCCN[C@@H](Cc1ccc(OCc2ccccc2)cc1)C(=O)N1CCN(Cc2cccc(Cl)c2Cl)CC1
> 5.82

Provide pIC50, system cloned human MC4R (Homo sapiens), entry N[C@@H](Cc1ccc(OCCc2cccc(C(F)(F)F)c2)cc1)C(=O)N1CCN(Cc2cccc(Cl)c2Cl)CC1
> 5.82

Provide pIC50, system cloned human MC4R (Homo sapiens), entry Cc1cccc(CN2CCCN(C(=O)[C@@H](N)Cc3ccc(OCc4ccccc4)cc3)CC2)n1
< 5.52

Provide pIC50, system cloned human MC4R (Homo sapiens), entry N[C@@H](Cc1ccc(OCc2cc(Cl)cc(Cl)c2)cc1)C(=O)N1CCN(Cc2cccc(Cl)c2Cl)CC1
> 5.82

Provide pIC50, system cloned human MC4R (Homo sapiens), entry N[C@@H](Cc1ccc(OCc2ccccc2)cc1)C(=O)N1CCCN(Cc2ccc(-c3ccccc3)cc2)CC1
5.52 to 5.82

Provide pIC50, system cloned human MC4R (Homo sapiens), entry N[C@@H](Cc1ccc(-c2ccc3ccccc3c2)cc1)C(=O)N1CCN(Cc2cccc(Cl)c2Cl)CC1
> 5.82

Provide pIC50, system cloned human MC4R (Homo sapiens), entry N[C@@H](Cc1ccc(-c2c(Cl)cccc2Cl)cc1)C(=O)N1CCN(Cc2cccc(Cl)c2Cl)CC1
5.52 to 5.82

Provide pIC50, system cloned human MC4R (Homo sapiens), entry N[C@@H](Cc1ccc(-c2cc3ccccc3s2)cc1)C(=O)N1CCN(Cc2cccc(Cl)c2Cl)CC1
> 5.82

Provide pIC50, system cloned human MC4R (Homo sapiens), entry N[C@@H](Cc1ccc(-c2ccc(Cl)c(Cl)c2)cc1)C(=O)N1CCN(Cc2cccc(Cl)c2Cl)CC1
> 5.82

Provide pIC50, system cloned human MC4R (Homo sapiens), entry CCCCN[C@@H](Cc1ccc(OCc2ccccc2)cc1)C(=O)N1CCN(Cc2cccc(Cl)c2Cl)CC1
> 5.82

Provide pIC50, system cloned human MC4R (Homo sapiens), entry N[C@@H](Cc1ccc(OCc2ccccc2)cc1)C(=O)N1CCN(Cc2ccc(C(F)(F)F)cc2C(F)(F)F)CC1
5.52 to 5.82

Provide pIC50, system cloned human MC4R (Homo sapiens), entry CC(C)(C)c1ccc(-c2ccc(C[C@H](N)C(=O)N3CCN(Cc4cccc(Cl)c4Cl)CC3)cc2)cc1
> 5.82

Provide pIC50, system cloned human MC4R (Homo sapiens), entry N[C@@H](Cc1ccc(OCc2cccc3ccccc23)cc1)C(=O)N1CCN(Cc2cccc(Cl)c2Cl)CC1
5.52 to 5.82

Provide pIC50, system cloned human MC4R (Homo sapiens), entry COc1cccc(CCOc2ccc(C[C@H](N)C(=O)N3CCN(Cc4cccc(Cl)c4Cl)CC3)cc2)c1
> 5.82

* * *

Provide the reported inhibition at 10 µM of each item.
- Tgt: cloned human MC4R (Homo sapiens)
- Construct: made in house; host or cells: Hi5 insect cells (baculovirus infection); membrane preparation
- Measurement protocol: Membrane binding assay: competitive inhibition of [125I]NDP-α-MSH binding
- Condition: at 10 μM; [125I]NDP-α-MSH displacement; read-out: Displacement Rate (%) (at 10 μM)

Provide inhibition at 10 µM value for the following compound: CCCCCCCN1CCN(C(=O)[C@@H](N)Cc2ccc(OCc3ccccc3)cc2)CC1
71 to 90%

Provide inhibition at 10 µM value for the following compound: N[C@@H](Cc1ccc(OCc2ccccc2)cc1)C(=O)N1CCCN(Cc2ccccc2Cl)CC1
35 to 70%

Provide inhibition at 10 µM value for the following compound: N[C@@H](Cc1ccc(OCc2ccccc2)cc1)C(=O)N1CCCN(Cc2ccc(-c3ccccc3)cc2)CC1
91 to 100%

Provide inhibition at 10 µM value for the following compound: N[C@@H](Cc1ccc(-c2ccccc2Cl)cc1)C(=O)N1CCN(Cc2cccc(Cl)c2Cl)CC1
91 to 100%

Provide inhibition at 10 µM value for the following compound: CN(C)c1ccc(CN2CCN(C(=O)[C@@H](N)Cc3ccc(OCc4ccccc4)cc3)CC2)c2ccccc12
35 to 70%

Provide inhibition at 10 µM value for the following compound: N[C@@H](Cc1ccc(OCc2ccccc2)cc1)C(=O)N1CCN(Cc2c(F)cccc2F)CC1
35 to 70%

Provide inhibition at 10 µM value for the following compound: O=C([C@H](Cc1ccc(OCc2ccccc2)cc1)NCCCN1CCOCC1)N1CCN(Cc2cccc(Cl)c2Cl)CC1
91 to 100%

Provide inhibition at 10 µM value for the following compound: N[C@@H](Cc1ccc(OCc2ccccc2)cc1)C(=O)N1CCCN(Cc2ccc(/C=C/c3ccccc3)cc2)CC1
91 to 100%

Provide inhibition at 10 µM value for the following compound: CCCCc1ccc(CN2CCCN(C(=O)[C@@H](N)Cc3ccc(OCc4ccccc4)cc3)CC2)cc1
71 to 90%

Provide inhibition at 10 µM value for the following compound: CC(C)N[C@@H](Cc1ccc(OCc2ccccc2)cc1)C(=O)N1CCN(Cc2cccc(Cl)c2Cl)CC1
71 to 90%

Provide inhibition at 10 µM value for the following compound: O=C([C@H](Cc1ccc(OCc2ccccc2)cc1)NCc1ccccc1)N1CCN(Cc2cccc(Cl)c2Cl)CC1
71 to 90%

Provide inhibition at 10 µM value for the following compound: N[C@@H](Cc1ccc(OCc2ccccc2)cc1)C(=O)N1CCN(Cc2cccc(Cl)c2Cl)CC1
91 to 100%

Provide inhibition at 10 µM value for the following compound: COc1ccc2ccccc2c1CN1CCN(C(=O)[C@@H](N)Cc2ccc(OCc3ccccc3)cc2)CC1
71 to 90%

Provide inhibition at 10 µM value for the following compound: N[C@@H](Cc1ccc(OCc2ccccc2)cc1)C(=O)N1CCN(Cc2cccc(Oc3ccccc3)c2)CC1
91 to 100%

Provide inhibition at 10 µM value for the following compound: N[C@@H](Cc1ccc(OCc2ccccc2)cc1)C(=O)N1CCN(Cc2ccc3c(c2)OCCO3)CC1
35 to 70%

Provide inhibition at 10 µM value for the following compound: COc1cc(CN2CCCN(C(=O)[C@@H](N)Cc3ccc(OCc4ccccc4)cc3)CC2)ccc1OCc1ccccc1
71 to 90%

Provide inhibition at 10 µM value for the following compound: N[C@@H](Cc1ccc(OCc2ccccc2)cc1)C(=O)N1CCN(Cc2cccc(Oc3cc(Cl)cc(Cl)c3)c2)CC1
91 to 100%

Provide inhibition at 10 µM value for the following compound: CCOc1cccc(-c2ccc(C[C@H](N)C(=O)N3CCN(Cc4cccc(Cl)c4Cl)CC3)cc2)c1
91 to 100%

Provide inhibition at 10 µM value for the following compound: CC(Cc1cccc(C(F)(F)F)c1)N1CCCN(C(=O)[C@@H](N)Cc2ccc(OCc3ccccc3)cc2)CC1 (stereo partly drawn)
71 to 90%

Provide inhibition at 10 µM value for the following compound: N[C@@H](Cc1ccc(OCc2ccccc2)cc1)C(=O)N1CCN(Cc2cccc(Oc3cccc(C(F)(F)F)c3)c2)CC1
91 to 100%

Provide inhibition at 10 µM value for the following compound: COc1cc(-c2ccc(C[C@H](N)C(=O)N3CCN(Cc4cccc(Cl)c4Cl)CC3)cc2)cc(OC)c1OC
35 to 70%

Provide inhibition at 10 µM value for the following compound: N[C@@H](Cc1ccc(-c2ccc(F)cc2)cc1)C(=O)N1CCN(Cc2cccc(Cl)c2Cl)CC1
91 to 100%

Provide inhibition at 10 µM value for the following compound: N[C@@H](Cc1ccc(OCc2ccccc2)cc1)C(=O)N1CCN(C2CCC(c3ccccc3)CC2)CC1 (stereo partly drawn)
71 to 90%

Provide inhibition at 10 µM value for the following compound: N[C@@H](Cc1ccc(OCc2ccccc2)cc1)C(=O)N1CCN(Cc2ccc(Oc3ccccc3)cc2)CC1
91 to 100%

Provide inhibition at 10 µM value for the following compound: CCc1ccc(CN2CCN(C(=O)[C@@H](N)Cc3ccc(OCc4ccccc4)cc3)CC2)cc1
35 to 70%

Provide inhibition at 10 µM value for the following compound: N[C@@H](Cc1ccc(-c2cccc(F)c2)cc1)C(=O)N1CCN(Cc2cccc(Cl)c2Cl)CC1
91 to 100%

Provide inhibition at 10 µM value for the following compound: N[C@@H](Cc1ccc(OCc2ccccc2)cc1)C(=O)N1CCN(Cc2ccc(/C=C/c3ccccc3)cc2)CC1
91 to 100%

Provide inhibition at 10 µM value for the following compound: CCCCCCCN1CCCN(C(=O)[C@@H](N)Cc2ccc(OCc3ccccc3)cc2)CC1
35 to 70%

Provide inhibition at 10 µM value for the following compound: N[C@@H](Cc1ccc(-c2ccc(Cl)cc2Cl)cc1)C(=O)N1CCN(Cc2cccc(Cl)c2Cl)CC1
91 to 100%

Provide inhibition at 10 µM value for the following compound: CCOc1cccc(CN2CCCN(C(=O)[C@@H](N)Cc3ccc(OCc4ccccc4)cc3)CC2)c1O
71 to 90%
